Give GI50 for every item shown.
System: CCRF-CEM
Experiment: NCI tumour cell line growth inhibition, 48 h
Calls of active or inactive are those of the source. No stated cut-off is given here; in the data, active = GI50 up to about 1.1 µM and inactive = higher.

Would you mind telling me what GI50 value was observed for O=C1CC2[C@@H](N3CCCC3)CCC(N1Cc1ccccc1)C2(O)O (some centres undefined) ?
> 100 µM (inactive)

Would you mind telling me what GI50 value was observed for `Cc1ccc2nnc(NS(=O)(=O)c3cc(C)c(Cl)cc3S)n2n1` ?
> 100 µM (inactive)

Would you mind telling me what GI50 value was observed for `[N-]=[N+]=NI1OC(C(F)(F)F)(C(F)(F)F)c2ccccc21` ?
7.85 µM (inactive)

Would you mind telling me what GI50 value was observed for `NCCCNCCCCN1CCOC1=O` ?
> 100 µM (inactive)

----------
System: U-251
Experiment: NCI tumour cell line growth inhibition, 48 h
Active and inactive are the calls of the source. Rule as the data show it: active = GI50 up to about 1.1 µM and inactive = higher.
Return exactly one item of active, inactive

Which outcome did this test record for the compound C=C1CC(C)(COc2ccc3c(C)c(Cl)c(=O)oc3c2)OC1=O (centres undefined) ?
inactive

Which outcome did this test record for the compound `O=C(O)CCc1nc2c(n1Cc1ccccc1)C(=O)c1ccccc1C2=O` ?
inactive

Which outcome did this test record for the compound CC(NC(CC12CC3CC(CC(C3)C1)C2)C(N)=O)c1ccccc1 (centres undefined) ?
inactive

Which outcome did this test record for the compound `Cc1ccc(Nc2cc(=O)[nH]c(=O)[nH]2)cc1CS` ?
inactive

Which outcome did this test record for the compound `c1ccc2c(c1)nc1n2CNCC1` ?
inactive

Which outcome did this test record for the compound C=CC/C=C/Cc1csc(C(C)(C)C(O)C/C=C/C(=C)CCNC(=O)OC)n1 (centres undefined) ?
inactive

Which outcome did this test record for the compound O=C1C2=Cc3ccccc3OC2(O)Oc2ccc(O)cc21 (centres undefined) ?
inactive

Which outcome did this test record for the compound `COc1cccc(-c2cc(O)c3cc(Cl)cnc3n2)c1` ?
active

Which outcome did this test record for the compound COc1cccc2c1C(=O)c1c(O)c3c(c(O)c1C2=O)C[C@](O)(C(=O)CO)CC3OC1CC(N)C(OC2CCCCO2)C(C)O1 (some centres undefined) ?
active

Which outcome did this test record for the compound `Cc1ccnc2nc(-c3ccc(F)cc3)cc(O)c12` ?
inactive

Which outcome did this test record for the compound COc1cc(OC)c2c(O)cc(CC(C)O)cc2c1 (centres undefined) ?
inactive

Which outcome did this test record for the compound O=C1OC(CC(=O)c2ccc(F)cc2)C(Cl)=C1Cl (centres undefined) ?
inactive

Which outcome did this test record for the compound NC(=O)NO [HYDROXYUREA] ?
inactive

Which outcome did this test record for the compound `COc1cc(/C=C2/C[C@H]3[C@@H]4CCC5=CC(=O)CC[C@]5(C)[C@H]4CC[C@]3(C)NC2=O)cc(OC)c1OC` ?
inactive

----------
Test system: SNB-19
Assay: NCI tumour cell line growth inhibition, 48 h
Calls of active or inactive are those of the source. No stated cut-off is given here; in the data, active = GI50 up to about 1.1 µM and inactive = higher.
Return exactly one item of 1 (yes) (active), 0 (no) (inactive)

Which outcome did this test record for the compound `O=C(CCc1nnc(S)[nH]1)Nc1cc(Cl)c(Cl)cc1Cl` ?
0 (no)

Which outcome did this test record for the compound `Cc1ccc(NC(=O)c2ccccc2C(=O)O)cc1C` ?
0 (no)

Which outcome did this test record for the compound `CN1CCCS/C1=C1/SC(=S)N(c2ccccc2)C1=O` ?
0 (no)

Which outcome did this test record for the compound C=CC/C=C/Cc1csc(C(C)(C)C(O)C/C=C/C(=C)CCNC(=O)OC)n1 (stereo not drawn) ?
0 (no)

Which outcome did this test record for the compound `Cn1c2ccccc2c2cc(-c3ccccc3)c3c(c21)C(=O)c1ccccc1C3=O` ?
0 (no)

Which outcome did this test record for the compound `COc1ccc(/C=C2\Sc3nnc(C)n3N=C2c2cc(F)c(Cl)cc2Cl)cc1OC` ?
0 (no)

Which outcome did this test record for the compound `CN1CCN(C(=S)N(C(=O)c2ccco2)C2CCCCC2)CC1` ?
0 (no)

Which outcome did this test record for the compound `COc1ccc(-c2cc(O)c3cccnc3n2)cc1` ?
0 (no)

Which outcome did this test record for the compound `CN(C)c1ccc(C(=C2C=CC(=[N+](C)C)C=C2)c2ccc(N(C)C)cc2)cc1` ?
1 (yes)

Which outcome did this test record for the compound `CC(=O)Oc1c(C)c2c(c3ccccc13)OC(C)(C)C2` ?
0 (no)

Which outcome did this test record for the compound COc1ccc(C2(C3c4cc(OC)c(OC)cc4CCN3C)SCCCS2)cc1O (stereo not drawn) ?
0 (no)

Which outcome did this test record for the compound `O=C(/C=C/c1ccc(OCCCOc2ccc(/C=C/C(=O)c3ccc(Cl)cc3)cc2)cc1)c1ccc(Cl)cc1` ?
0 (no)

Which outcome did this test record for the compound `COc1ccc(OC)c2sc(N3C(=O)/C(=C/Cc4ccco4)N=C3c3ccccc3)nc12` ?
0 (no)

Which outcome did this test record for the compound `COC(=O)c1ccccc1C#CC#Cc1ccccc1C(=O)OC` ?
0 (no)

Which outcome did this test record for the compound `COC(=O)/C=C\C(C#N)(C#N)/N=C/c1cc(Br)cs1` ?
0 (no)

Which outcome did this test record for the compound Cc1c(Cl)ccc2c1NC(=O)C2(O)CC(=O)c1ccc2ccccc2c1 (stereo not drawn) ?
0 (no)

Which outcome did this test record for the compound CN1Cc2ccccc2C2(COc3ccccc3C2=O)C1 (stereo not drawn) ?
0 (no)

Which outcome did this test record for the compound Cc1cc2ncn(C3CCCO3)c2cc1C (stereo not drawn) ?
0 (no)

----------
Tested on: MOLT-4
Test: NCI tumour cell line growth inhibition, 48 h
Calls of active or inactive are those of the source. No stated cut-off is given here; in the data, active = GI50 up to about 1.1 µM and inactive = higher.
Return exactly one item of active, inactive

Which outcome did this test record for the compound COC(=O)C1OC(SCCN)C(O)C(O)C1O (centres undefined) ?
inactive

Which outcome did this test record for the compound `CC1=C(C(=O)N[C@@H](CC(C)C)C(=O)O)N2C(=O)[C@@H](NC(=O)[C@@H](N)Cc3ccccc3)[C@H]2SC1` ?
inactive

Which outcome did this test record for the compound `Cc1cccc2nc(-c3ccccc3)cc(=O)n12` ?
inactive

Which outcome did this test record for the compound COc1cc(C(O)C(=O)c2nc3ccc([N+](=O)[O-])cc3nc2O)ccc1O (centres undefined) ?
inactive

Which outcome did this test record for the compound C[C@]12CCc3nonc3C1CC[C@@H]1C2CC[C@]2(C)C(=O)CCC12 (some centres undefined) ?
inactive

Which outcome did this test record for the compound `Cc1ccc(C2=CC(=O)/C(=C\C(=O)c3ccc(Cl)cc3)O2)cc1` ?
inactive

Which outcome did this test record for the compound CC1CCC2(OC1)OC1CC3C4CCC5CC(O)CCC5(C)C4CC(=O)OC3(C)C1C2C (centres undefined) ?
inactive

Which outcome did this test record for the compound `COc1cccc(-c2cc(O)c3cc(Cl)cnc3n2)c1` ?
active

Which outcome did this test record for the compound COc1cccc(C2ON=C(c3ccccc3)N2C23CC4CC(CC(C4)C2)C3)c1 (centres undefined) ?
inactive

Which outcome did this test record for the compound `Nn1c(CCCl)nc2c(Br)cc(Br)cc2c1=O` ?
inactive

Which outcome did this test record for the compound `CN(C)c1nc(NN)c2c(-c3ccccc3)c(-c3ccccc3)oc2n1` ?
inactive

Which outcome did this test record for the compound `COc1ccc(/C=C2\Sc3nnc(C)n3N=C2c2cc(F)c(Cl)cc2Cl)cc1OC` ?
inactive

Which outcome did this test record for the compound `C(=N/NC1=NCCN1)/c1c2ccccc2c(/C=N\NC2=NCCN2)c2ccccc12` ?
active

Which outcome did this test record for the compound `O=[N+]([O-])c1ccc2c(c1)/C(=N/N=C1c3ccccc3Cc3ccccc31)c1cc([N+](=O)[O-])cc([N+](=O)[O-])c1-2` ?
inactive

Which outcome did this test record for the compound `O=C(N[C@@H](Cc1ccccc1)B(O)O)[C@H](Cc1cccc2ccccc12)NC(=O)N1CCOCC1` ?
active

Which outcome did this test record for the compound C/N=C1\OC2=C3C(c4ccccc4)(O/C(=N/C)N(C)C3(c3ccccc3)OC2=O)N1C (centres undefined) ?
inactive

Which outcome did this test record for the compound `Cc1cc(O)c2c(c1)C(=O)C=C(Br)C2=O` ?
active

Which outcome did this test record for the compound `O=[N+]([O-])c1cc(C(F)(F)F)cc([N+](=O)[O-])c1CCl` ?
active

Which outcome did this test record for the compound `CCNc1nc2c(=O)n(C)c(=O)n(C)c2s1` ?
inactive

Which outcome did this test record for the compound `CCCCc1ccc(Nc2nc(S)c3ncn(COCCO)c3n2)cc1` ?
inactive

Which outcome did this test record for the compound `C[C@@H](NC(=O)[C@@H]1C[C@]1(C)CO)c1cccc2ccccc12` ?
inactive

Which outcome did this test record for the compound CC1=C(Cl)C=CP(=O)(Oc2ccccc2)C1 (centres undefined) ?
inactive

Which outcome did this test record for the compound `N=C(NC(=N)Nc1ccc(S(=O)(=O)Nc2cnc3ccccc3n2)cc1)Nc1ccc(Br)cc1` ?
inactive

Which outcome did this test record for the compound `c1ccc(-c2c3c(nc4c2CC[C@H]4NC2=NCCN2)[C@@H](NC2=NCCN2)CC3)cc1` ?
inactive

Which outcome did this test record for the compound `NCCCNCCCCN1CCOC1=O` ?
inactive

Which outcome did this test record for the compound COc1cccc(NC(=O)C(=O)C2C=CCS2(=O)=O)c1 (centres undefined) ?
inactive

Which outcome did this test record for the compound `COc1ccc(Sc2ccccc2[N+](=O)[O-])cc1` ?
inactive

Which outcome did this test record for the compound Cc1cc(Br)cc(C)c1NC(=O)C(=O)C1C(=O)C(CC2C(=O)c3ccccc3C2=O)C(=O)CC1(C)C (centres undefined) ?
inactive

Which outcome did this test record for the compound Cc1c(Cl)ccc2c1NC(=O)C2(O)CC(=O)c1ccc2ccccc2c1 (centres undefined) ?
inactive

Which outcome did this test record for the compound COC1O[C@H]2[C@H]3[C@@H]1[C@@H](OS(=O)(=O)c1ccc(C)cc1)C(=O)N3C[C@H]2O (some centres undefined) ?
inactive

Which outcome did this test record for the compound `[N-]=[N+]=N/C1=C/CCCCC(=O)C1` ?
inactive

Which outcome did this test record for the compound C=C1C(=O)OC2CC3(C)C=CC(=O)C(=C)C3CC12 (centres undefined) ?
active

Which outcome did this test record for the compound `CN(C)c1ccc(C(=C(c2ccc(N(C)C)cc2)c2ccc(N(C)C)cc2)c2ccc(N(C)C)cc2)cc1` ?
inactive

Which outcome did this test record for the compound `Nc1nc(Cl)cc(NCCO)n1` ?
inactive

Which outcome did this test record for the compound C=C1C=CC2(Br)OC3CC(C)(Cl)C(Br)CC13C2(C)C (centres undefined) ?
inactive

Which outcome did this test record for the compound Fc1cccc(Cl)c1C1SCc2nc3ccccc3n21 (centres undefined) ?
inactive

Which outcome did this test record for the compound CC1=C(C(=O)NCC(C)O)CC(C(=O)NCC(C)O)=C(C)N1 (centres undefined) ?
inactive

Which outcome did this test record for the compound [N-]=[N+]=Nc1ccc2c(c1)Sc1ccccc1N2CCCCN1CCN(Cc2ccc(C(=O)c3ccc(CSCC(N)C(=O)O)cc3)cc2)CC1 (centres undefined) ?
inactive

Which outcome did this test record for the compound O=C(CC1(O)C(=O)Nc2ccc([N+](=O)[O-])cc21)c1ccc(Br)cc1 (centres undefined) ?
inactive

The measured values listed here are drawn from ChEMBL document CHEMBL1201862.
